Biological target: JAK2 (Homo sapiens, UniProt O60674)
Sequence (O60674 whole entry): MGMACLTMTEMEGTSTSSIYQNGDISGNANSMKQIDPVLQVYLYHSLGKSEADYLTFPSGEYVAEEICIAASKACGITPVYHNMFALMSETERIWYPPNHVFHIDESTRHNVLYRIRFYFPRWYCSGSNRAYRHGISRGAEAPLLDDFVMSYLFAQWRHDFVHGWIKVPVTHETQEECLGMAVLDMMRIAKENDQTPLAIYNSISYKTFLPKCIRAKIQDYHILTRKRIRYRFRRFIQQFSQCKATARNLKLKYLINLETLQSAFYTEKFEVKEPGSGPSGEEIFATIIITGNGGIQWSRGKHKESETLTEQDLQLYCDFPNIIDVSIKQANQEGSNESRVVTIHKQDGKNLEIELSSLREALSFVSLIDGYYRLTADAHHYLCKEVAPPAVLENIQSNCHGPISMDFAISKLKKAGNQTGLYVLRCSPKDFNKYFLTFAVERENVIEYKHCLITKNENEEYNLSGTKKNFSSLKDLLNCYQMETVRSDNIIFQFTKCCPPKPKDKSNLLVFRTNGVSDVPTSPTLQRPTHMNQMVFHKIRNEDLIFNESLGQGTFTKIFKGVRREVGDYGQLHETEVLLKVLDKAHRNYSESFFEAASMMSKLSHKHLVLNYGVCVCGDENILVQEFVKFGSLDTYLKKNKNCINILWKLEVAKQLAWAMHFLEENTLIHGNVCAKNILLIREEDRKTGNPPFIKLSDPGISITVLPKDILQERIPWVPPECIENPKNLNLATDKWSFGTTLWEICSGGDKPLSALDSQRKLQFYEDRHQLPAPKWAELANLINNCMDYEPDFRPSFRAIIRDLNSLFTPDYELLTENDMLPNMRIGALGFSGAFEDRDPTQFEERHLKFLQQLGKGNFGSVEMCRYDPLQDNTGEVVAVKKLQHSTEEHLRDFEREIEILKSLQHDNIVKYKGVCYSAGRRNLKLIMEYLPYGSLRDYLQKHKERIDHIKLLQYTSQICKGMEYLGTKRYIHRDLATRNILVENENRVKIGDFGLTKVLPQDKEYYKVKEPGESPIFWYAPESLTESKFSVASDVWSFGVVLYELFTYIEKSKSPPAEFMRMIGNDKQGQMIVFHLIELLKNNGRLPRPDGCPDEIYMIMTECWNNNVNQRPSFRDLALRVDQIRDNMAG
Assay: Enzyme screening kinase assay, JAK2
Format: biochemical
Conditions: Data 1; read-out: JAK2 IC50 Data 1
IC50 overview
reported.endpoint: IC50 (nM)

[[record]]
structure_smiles = "N#CCNC(=O)c1ccc(-c2ccnc(Nc3ccc(N4CCC[C@@]5(CCO5)C4)cc3)n2)cc1"
target_under_test = "JAK2 (Homo sapiens, UniProt O60674)"
reported_endpoint = "IC50"
value_unit = "nM"
readout_number = 14.2

[[record]]
structure_smiles = "N#CCNC(=O)c1ccc(-c2ccnc(Nc3ccc(N4CCC5(CCO5)CC4)cc3)n2)cc1"
target_under_test = "JAK2 (Homo sapiens, UniProt O60674)"
reported_endpoint = "IC50"
value_unit = "nM"
readout_number = 22.2

[[record]]
structure_smiles = "N#CCNC(=O)c1ccc(-c2ccnc(Nc3ccc(N4CC5CCC(C4)O5)cc3)n2)cc1"
target_under_test = "JAK2 (Homo sapiens, UniProt O60674)"
reported_endpoint = "IC50"
value_unit = "nM"
readout_number = 29.3

[[record]]
structure_smiles = "N#CCNC(=O)c1ccc(-c2ccnc(Nc3ccc(N4C[C@@H]5C[C@H]4CO5)cc3)n2)cc1"
target_under_test = "JAK2 (Homo sapiens, UniProt O60674)"
reported_endpoint = "IC50"
value_unit = "nM"
readout_number = 11.1

[[record]]
structure_smiles = "N#CCNC(=O)c1ccc(-c2ccnc(Nc3ccc(N4CC5(CCO5)C4)cc3)n2)cc1"
target_under_test = "JAK2 (Homo sapiens, UniProt O60674)"
reported_endpoint = "IC50"
value_unit = "nM"
readout_number = 108

[[record]]
structure_smiles = "N#CCNC(=O)c1ccc(-c2ccnc(Nc3ccc(N4CCC[C@]5(CCO5)C4)cc3)n2)cc1"
target_under_test = "JAK2 (Homo sapiens, UniProt O60674)"
reported_endpoint = "IC50"
value_unit = "nM"
readout_number = 30

